- Test system: IGROV-1
- measurementDescription: Growth inhibition of estrogen-sensitive human IGROV1 cells after 72 hrs by MTT assay
- Type: functional
- conditionsUsed: IGROV-1, 72 h
Threshold check on GI50: strictly below 20 µM is t; on or above 20 µM is f.

INSERT INTO results (smilesstring, labelvalue) VALUES
  ('c1ccc(-c2cc(Cn3ccnc3)c3ccc4[nH]ccc4c3n2)cc1', 'f'),
  ('CCn1ccc2c3c(Cn4ccnc4)cc(-c4ccccc4)nc3ccc21', 't'),
  ('Cc1cc(Cn2ccnc2)c2ccc3[nH]ccc3c2n1', 'f'),
  ('COc1ccc(-c2cc(Cn3ccnc3)c3ccc4[nH]ccc4c3n2)cc1', 'f'),
  ('CCn1ccc2c3nc(-c4ccccc4)cc(Cn4ccnc4)c3ccc21', 't'),
  ('N#Cc1ccc(C(c2ccc(C#N)cc2)n2cncn2)cc1', 'f'),
  ('CCn1ccc2c3c(Cn4cncn4)cc(-c4ccccc4)nc3ccc21', 'f'),
  ('COc1cccc(-c2cc(=O)c3ccc4[nH]ccc4c3[nH]2)c1', 't'),
  ('COc1ccc(-c2cc(Cn3cncn3)c3ccc4[nH]ccc4c3n2)cc1', 'f');

These measurements were taken from ChEMBL document CHEMBL2440047.
